Below: a set of entries, each annotated with reported inhibition at 0.01 µM.
# target.or.system: GnRH receptor (Homo sapiens)
# Sequence (P30968 1-328): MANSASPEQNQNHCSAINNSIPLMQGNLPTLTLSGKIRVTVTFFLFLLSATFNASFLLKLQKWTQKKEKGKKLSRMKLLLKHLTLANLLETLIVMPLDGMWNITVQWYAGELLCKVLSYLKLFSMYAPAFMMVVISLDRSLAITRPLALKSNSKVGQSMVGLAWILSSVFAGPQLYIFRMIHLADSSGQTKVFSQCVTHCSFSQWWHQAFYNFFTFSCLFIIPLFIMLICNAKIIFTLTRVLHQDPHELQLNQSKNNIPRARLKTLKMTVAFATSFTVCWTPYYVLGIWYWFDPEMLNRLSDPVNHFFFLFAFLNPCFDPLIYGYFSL
# method: GnRH receptor-membrane binding assay ([125I]-D-Trp6-LHRH displacement)
# Parameters: purchased PerkinElmer; host or cells: CHO-K1 (ATCC CCL-61), stably transfected
# condition.summary: compound at 10 nM; 0.2 nM [125I]-D-Trp6-LHRH; CHO-K1 GnRH receptor membrane; read-out: GnRH binding inhibition (%) at 10 nM
# Method: A GnRH receptor membrane binding assay was carried out for the compounds of the present invention by employing a membrane substrate (PerkinElmer) isolated from CHO-K1 cells (ATCC CCL-61) stably transfected with a GnRH receptor. […]
// note: answer is a bare numeric in %

Would you please look over these solved cases?
N[C@@H](Cn1c(=O)c2c(n(Cc3c(F)cccc3C(F)(F)F)c1=O)COC21CCN(Cc2cocn2)CC1)c1ccccc1 [Example 1-63] :: 88.6
N[C@@H](Cn1c(=O)c2c(n(Cc3c(F)cccc3C(F)(F)F)c1=O)COC21CCN(Cc2ccccc2F)CC1)c1ccccc1 [Example 1-29] :: 104
N[C@@H](Cn1c(=O)c2c(n(Cc3c(F)cccc3C(F)(F)F)c1=O)COC21CCN(Cc2cccc3nonc23)CC1)c1ccccc1 [Example 1-25] :: 91.3
COCCN1CCC2(CC1)OCc1c2c(=O)n(C[C@H](N)c2ccccc2)c(=O)n1Cc1c(F)cccc1C(F)(F)F [Example 1-2] :: 50.8
N[C@@H](Cn1c(=O)c2c(n(Cc3c(F)cccc3C(F)(F)F)c1=O)COC21CCN(Cc2ccc(Cl)cc2)CC1)c1ccccc1 [Example 1-51] :: 95.6

Task: Suppose we examine the compound CONC(=O)Nc1cccc(C(Cn2c(=O)c3c(n(Cc4c(F)cccc4C(F)(F)F)c2=O)COC32CCN(Cc3ccc(C(F)(F)F)o3)CC2)NC(=O)OC(C)(C)C)c1 (centres unmarked) [Example 63] ; what inhibition at 0.01 µM value has been reported?
Result: 89.8

Task: Suppose we examine the compound Cc1ccccc1CN1CCC2(CC1)OCc1c2c(=O)n(C[C@H](N)c2ccccc2)c(=O)n1Cc1c(F)cccc1C(F)(F)F [Example 1-26] ; what inhibition at 0.01 µM value has been reported?
Result: 102

Task: Suppose we examine the compound Cc1cccc(C(Cn2c(=O)c3c(n(Cc4c(F)cccc4C(F)(F)F)c2=O)COC32CCN(Cc3ccc(C(F)(F)F)o3)CC2)NCCCC(=O)O)n1 (centres unmarked) [Example 36] ; what inhibition at 0.01 µM value has been reported?
Result: 88
